Value source: ChEMBL document CHEMBL1151742

Assay: Metabolic stability in rat serum assessed as half life at pH 7.5
Format: ADME, cell-free
Peptide text beside a SMILES is read from it. * marks the point of attachment. Palmitoyl = CCCCCCCCCCCCCCCC(=O)*
Entries and their half-life

CCCCCCCCCCCCCCCC(=O)NCCCC[C@H](NC(=O)[C@H](CCCCN)NC(=O)[C@H](CCCCN)NC(=O)[C@@H]1CCCN1C(=O)CNC(=O)[C@H](CC(C)C)NC(=O)[C@H](CC(C)C)NC(=O)[C@H](Cc1ccc(O)cc1)NC(=O)CNC(=O)[C@H](C)NC(=O)[C@H](CO)NC(=O)[C@H](CC(N)=O)NC(=O)[C@H](CC(C)C)NC(=O)[C@@H](NC(=O)[C@H](Cc1c[nH]c2ccccc12)NC(=O)CN)[C@@H](C)O)C(=O)N[C@@H](CCCCN)C(N)=O : > 600 min

stdin: Endpoint output: half-life of CCCCCCCCCCCCCCCC(=O)NCCCC[C@H](NC(=O)[C@H](CCCCN)NC(=O)[C@H](CCCCN)NC(=O)[C@@H]1CCCN1C(=O)CNC(=O)[C@H](CC(C)C)NC(=O)[C@H](CC(C)C)NC(=O)[C@H](Cc1ccc(O)cc1)NC(=O)CNC(=O)[C@H](C)NC(=O)[C@H](CO)NC(=O)[C@H](CC(N)=O)NC(=O)[C@H](CC(C)C)NC(=O)[C@@H](NC(=O)[C@@H](N)Cc1c[nH]c2ccccc12)[C@@H](C)O)C(=O)N[C@@H](CCCCN)C(N)=O (H-WTLNSAGYLLGPKKK(Palmitoyl)K-NH2) . Value?
stdout: > 600 min
